Tested on: A. terreus
Experiment: Antifungal disk diffusion susceptibility test (CLSI M44)
Assay type: cell-based
Settings: Aspergillus terreus; A. terreus; 150 μg/disc
quantity-kind: zone of inhibition at 150 µg/disc

1. NNC(=O)C(=O)NNc1ccccc1 ... 20 mm
2. NNC(=O)C(=O)NNc1ccc(Cl)cc1 ... < 10 mm
3. COc1ccc(NNC(=O)C(=O)NN)cc1 ... 19 mm
4. NNC(=O)C(=O)NNc1ccc(Br)cc1 ... < 10 mm
5. NNC(=O)CC(=O)NNc1ccccc1 ... < 10 mm
6. COc1cccc(NNC(=O)C(=O)NN)c1 ... > 40 mm
7. Cc1ccc(NNC(=O)C(=O)NN)cc1 ... < 10 mm
8. NNC(=O)C(=O)NNc1ccc(F)cc1 ... 12 mm

---

Listed here are molecules together with their documented Activity detected (mm).
Test system: A. baumannii
Test: Kirby-Bauer disk diffusion susceptibility test
Type: cell-based
Settings: 300 μg/disc
quantity-kind: Activity detected (mm)

1. Cc1ccc(NNC(=O)C(=O)NN)cc1 ... 15
2. NNC(=O)C(=O)NNc1ccc(Cl)cc1 ... 12
3. COc1ccc(NNC(=O)C(=O)NN)cc1 ... 18
4. NNC(=O)C(=O)NNc1ccc(Br)cc1 ... 12
5. NNC(=O)C(=O)NNc1ccccc1 ... 20

---

Test system: S. cerevisiae
Assay: Antifungal disk diffusion susceptibility test (CLSI M44)
Assay type: cell-based
Settings: Saccharomyces cerevisiae; S. cerevisiae; 500 μg/disc
Listed here are molecules together with their documented zone of inhibition at 500 µg/disc.
quantity-kind: zone of inhibition at 500 µg/disc (mm)

1) NNC(=O)C(=O)NNc1ccc(Cl)cc1 ... 32
2) COc1cccc(NNC(=O)C(=O)NN)c1 ... 25
3) NNC(=O)C(=O)NNc1ccc(Br)cc1 ... 35
4) Cc1ccc(NNC(=O)C(=O)NN)cc1 ... 34
5) NNC(=O)C(=O)NNc1ccccc1 ... 35
6) COc1ccc(NNC(=O)C(=O)NN)cc1 ... 30
7) NNC(=O)C(=O)NNc1ccc(F)cc1 ... 40

---

Listed here are compounds together with their documented zone of inhibition at 500 µg/disc.
Test system: A. fumigatus
Assay: Antifungal disk diffusion susceptibility test (CLSI M44)
Format: cell-based
Conditions: Aspergillus fumigatus; A. fumigatus; 500 μg/disc
quantity-kind: zone of inhibition at 500 µg/disc (mm)

1) NNC(=O)CC(=O)NNc1ccccc1 ... 32
2) NNC(=O)C(=O)NNc1ccc(Cl)cc1 ... 16
3) NNC(=O)C(=O)NNc1ccc(Br)cc1 ... 10
4) COc1ccc(NNC(=O)C(=O)NN)cc1 ... 16
5) Cc1ccc(NNC(=O)C(=O)NN)cc1 ... 10

---

Test system: A. fumigatus
Assay: Antifungal disk diffusion susceptibility test (CLSI M44)
Assay type: cell-based
Details: Aspergillus fumigatus; A. fumigatus; 500 μg/disc
quantity-kind: zone of inhibition at 500 µg/disc

1. NNC(=O)C(=O)NNc1ccccc1 ... > 40 mm
2. NNC(=O)C(=O)NNc1ccc(F)cc1 ... > 40 mm
3. COc1cccc(NNC(=O)C(=O)NN)c1 ... > 40 mm
